Provenance of the data: patent US20160002357A1

# key: entry, value: % of binding of Clone #153 to human P-cadherin-Fc
Target: T1, P-cadherin-ECD1-3-Fc protein (human P-cadherin-Fc) (human, UniProt P22223 108-440)
T1 construct: Construct was expressed with signal peptide and pro-peptide (PACE co-transfected to process the propeptide); not shown: hinge and CH2 and CH3 domains of human IgG1
T1 sequence (P22223 108-440): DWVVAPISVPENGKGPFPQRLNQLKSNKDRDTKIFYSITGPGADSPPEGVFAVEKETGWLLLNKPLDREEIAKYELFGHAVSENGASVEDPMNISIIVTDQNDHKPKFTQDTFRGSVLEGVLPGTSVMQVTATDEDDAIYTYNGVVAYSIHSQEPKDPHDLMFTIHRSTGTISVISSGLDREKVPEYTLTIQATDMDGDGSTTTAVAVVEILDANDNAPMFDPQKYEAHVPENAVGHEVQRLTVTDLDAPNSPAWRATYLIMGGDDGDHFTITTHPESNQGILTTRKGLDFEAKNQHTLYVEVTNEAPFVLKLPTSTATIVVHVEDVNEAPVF
Assay: phage scFv ELISA, coated P-cadherin-ECD1-3-Fc
Protocol: ScFvs may be expressed on the surface of a phage particle. […] P-cadherin-ECD1-3-Fc protein or negative control protein was coated overnight at 4° C. on 96-well Nunc Maxisorp® plates (Thermo Fisher Scientific, Madison, Conn.) at a concentration of 2 μg/mL in PBS+Ca²⁺ and Mg²⁺. […] Signal was developed using TMB (SurModics, Eden Prairie, Minn.), the reaction stopped with H₂SO₄ and the absorbance read at 450 nm on an EnVision® plate reader (Perkin Elmer, Waltham, Mass.).
PROPERTY_MEASURED: % of binding of Clone #153 to human P-cadherin-Fc

BINDER	RECORDED_VALUE
anti-P-cadherin scFv 153 alanine-mutant L2.6-Ala (scFv, V domains shown, scFv on phage) VH: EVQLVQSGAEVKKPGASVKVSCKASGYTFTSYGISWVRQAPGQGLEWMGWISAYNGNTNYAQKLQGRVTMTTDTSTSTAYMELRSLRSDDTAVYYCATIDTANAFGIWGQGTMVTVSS VL: QSVLTQPPSVSAAPGQKVTISCSGSSSNIGNNYVSWYQQLPGTAPKLLIYDNNKRASGIPDRFSGSKSGTSATLGITGLQTGDEADYYCGTWDSSLSGVVFGGGTKLTVL	172%
anti-P-cadherin scFv 153 alanine-mutant L3.8-Ala (scFv, V domains shown, scFv on phage) VH: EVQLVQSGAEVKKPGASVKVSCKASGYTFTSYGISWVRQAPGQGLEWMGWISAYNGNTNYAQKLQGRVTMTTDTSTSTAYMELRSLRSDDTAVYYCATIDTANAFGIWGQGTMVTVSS VL: QSVLTQPPSVSAAPGQKVTISCSGSSSNIGNNYVSWYQQLPGTAPKLLIYDNNKRPSGIPDRFSGSKSGTSATLGITGLQTGDEADYYCGTWDSSLAGVVFGGGTKLTVL	173%
anti-P-cadherin scFv 153 alanine-mutant L1.2-Ala (scFv, V domains shown, scFv on phage) VH: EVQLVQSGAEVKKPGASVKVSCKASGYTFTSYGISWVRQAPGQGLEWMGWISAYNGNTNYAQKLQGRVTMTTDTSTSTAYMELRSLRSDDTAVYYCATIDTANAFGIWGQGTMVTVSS VL: QSVLTQPPSVSAAPGQKVTISCSASSSNIGNNYVSWYQQLPGTAPKLLIYDNNKRPSGIPDRFSGSKSGTSATLGITGLQTGDEADYYCGTWDSSLSGVVFGGGTKLTVL	97%
